# System: MDA-MB-468 breast
# experiment_summary: NCI-60 one-dose screen, 48 h
# condition_description: 10 µM unless noted
The panel holds about 83,000 compounds, 20% with a hit somewhere; the sample as a whole holds those more often. The source made the active and inactive calls. Rule for the calls: active = growth percent below 10; inactive = the rest.
Classes used: T (active), F (inactive)

{"molecule": "CCOC(=O)c1c(C)oc2ncnc(Nc3ccc(C(=O)NCCc4ccccc4)cc3)c12", "assay_system": "MDA-MB-468 breast", "label_class": "F"}
{"molecule": "CCCc1nc(C(C)(C)O)c(C(=O)O)n1Cc1ccc(-c2ccccc2-c2nn[nH]n2)cc1", "assay_system": "MDA-MB-468 breast", "label_class": "F"}
{"molecule": "CCOC(=O)Cn1c(=O)c2sc3ncccc3c2n2nnc(-c3ccccc3)c12", "assay_system": "MDA-MB-468 breast", "label_class": "F"}
{"molecule": "O=C(C[n+]1cccc2ccccc21)c1ccc(O)c(O)c1", "assay_system": "MDA-MB-468 breast", "label_class": "F"}
{"molecule": "COc1cc2ncnc(Nc3ccc4c(cnn4C(=O)Nc4ccccc4)c3)c2cc1OC", "assay_system": "MDA-MB-468 breast", "label_class": "F"}
{"molecule": "COc1ccc2occ(C3=C(c4c[nH]c5ccccc45)C(=O)NC3=O)c2c1", "assay_system": "MDA-MB-468 breast", "label_class": "T"}
{"molecule": "N#CC1=C(N)Oc2c(sc3c(F)cccc23)C1c1ccc(Cl)cc1 (stereo not given)", "assay_system": "MDA-MB-468 breast", "label_class": "T"}
{"molecule": "COc1ccc(/C=C2\\Oc3cc(OCCCN4CCCCC4)ccc3C2=O)cc1OC", "assay_system": "MDA-MB-468 breast", "label_class": "F"}
{"molecule": "Nc1ccc2c(c1)/C(=N/O)c1cc([N+](=O)[O-])ccc1-2", "assay_system": "MDA-MB-468 breast", "label_class": "F"}
{"molecule": "CCCCNC(=O)Oc1ccc(/C(=C(/C)Cc2ccc(OC)cc2)c2ccc(OCCN3CCCCCC3)cc2)cc1", "assay_system": "MDA-MB-468 breast", "label_class": "F"}
{"molecule": "COc1ccc(-c2nc(-c3ccccc3)c(-c3ccccc3)[nH]2)cc1OC1CCCC1", "assay_system": "MDA-MB-468 breast", "label_class": "F"}
{"molecule": "CCCCN1CCN(c2ccc3nc(-c4ccc5nc(-c6ccc(C(F)(F)F)cc6)[nH]c5c4)[nH]c3c2)CC1", "assay_system": "MDA-MB-468 breast", "label_class": "T"}
{"molecule": "O=C(O)c1cn(C2CC2)c2cc(N3CCN(C(=O)Nc4nc(-c5ccc(Br)cc5)cs4)CC3)c(F)cc2c1=O", "assay_system": "MDA-MB-468 breast", "label_class": "F"}
{"molecule": "COc1cc(/C=N/NC(=O)c2cnn3c2NC(c2ccccc2)C3)ccc1OC1CCCC1 (stereo not given)", "assay_system": "MDA-MB-468 breast", "label_class": "F"}
{"molecule": "CCN(CC)CCCCNc1c2ccccc2[n+](C)c2c1[nH]c1ccccc12", "assay_system": "MDA-MB-468 breast", "label_class": "T"}
{"molecule": "COc1cc(Nc2c3ccc(Cl)cc3nc3ccc(OC)cc23)c2ncccc2c1", "assay_system": "MDA-MB-468 breast", "label_class": "F"}
{"molecule": "CC1Cc2c(N(C)C)ncnc2N(C)c2ccc(O)cc21 (stereo not given)", "assay_system": "MDA-MB-468 breast", "label_class": "F"}
{"molecule": "Cc1ccc(/C=C/C(=O)C(=O)/C=C/c2ccc(C)cc2)cc1", "assay_system": "MDA-MB-468 breast", "label_class": "F"}
{"molecule": "Cn1c2c(cc(S(=O)(=O)c3ccccc3)c1=O)CCc1c-2cnn1-c1ccc(Cl)cc1", "assay_system": "MDA-MB-468 breast", "label_class": "T"}
{"molecule": "C=C1CC[C@@H]2[C@](C)(COC(C)=O)[C@H](OC(C)=O)CC[C@@]2(C)[C@@H]1C/C=C1/C(=O)OC[C@H]1OC(C)=O", "assay_system": "MDA-MB-468 breast", "label_class": "T"}
